- Target: BuChE from equine serum (EqBuChE) (Equus caballus)
- Construct: butyrylcholinesterase from equine serum (EqBuChE); purchased Sigma-Aldrich (Prague, Czech Republic); host or cells: equine serum (natural source)
- Assay Text: biochemical
- Condition Details: mean ± SD, n = three independent experiments, read-out: IC50 BuChE
Category | rule: reported IC50 within range, see c1 (below 100 µM), c2 (100 µM to below 200 µM), c3 (200 µM or more)

> print(dat)
                               smiles.input                                    target  class.label
1  CCCCCCCCCCCNC(=O)NNC(=O)c1ccc(C(F)(F)F)cc1  BuChE from equine serum (EqBuChE) (Equus caballus)           c2
2       CCCCNC(=O)NNC(=O)c1ccc(C(F)(F)F)cc1  BuChE from equine serum (EqBuChE) (Equus caballus)           c1
3  CCCCCCCCCCCCCCCCCCNC(=O)NNC(=O)c1ccc(C(F)(F)F)cc1  BuChE from equine serum (EqBuChE) (Equus caballus)           c2
4  CCCCCCCCCCNC(=O)NNC(=O)c1ccc(C(F)(F)F)cc1  BuChE from equine serum (EqBuChE) (Equus caballus)           c2
5  CCCCCCCCCCCCNC(=O)NNC(=O)c1ccc(C(F)(F)F)cc1  BuChE from equine serum (EqBuChE) (Equus caballus)           c3
6       CCCCCCNc1nnc(-c2ccc(C(F)(F)F)cc2)o1  BuChE from equine serum (EqBuChE) (Equus caballus)           c2
7  CCCCCCCCCCCCCCNC(=O)NNC(=O)c1ccc(C(F)(F)F)cc1  BuChE from equine serum (EqBuChE) (Equus caballus)           c3
8  CCCCCCCCCNC(=O)NNC(=O)c1ccc(C(F)(F)F)cc1  BuChE from equine serum (EqBuChE) (Equus caballus)           c1
9     CCCCCCNC(=O)NNC(=O)c1ccc(C(F)(F)F)cc1  BuChE from equine serum (EqBuChE) (Equus caballus)           c1

* * *

Below, each entry is listed with its recorded IC50.
- Target: BuChE from equine serum (EqBuChE) (Equus caballus, UniProt P81908)
- Construct: butyrylcholinesterase from equine serum (EqBuChE); purchased Sigma-Aldrich (Prague, Czech Republic); host or cells: equine serum (natural source)
- Sequence (P81908 whole entry): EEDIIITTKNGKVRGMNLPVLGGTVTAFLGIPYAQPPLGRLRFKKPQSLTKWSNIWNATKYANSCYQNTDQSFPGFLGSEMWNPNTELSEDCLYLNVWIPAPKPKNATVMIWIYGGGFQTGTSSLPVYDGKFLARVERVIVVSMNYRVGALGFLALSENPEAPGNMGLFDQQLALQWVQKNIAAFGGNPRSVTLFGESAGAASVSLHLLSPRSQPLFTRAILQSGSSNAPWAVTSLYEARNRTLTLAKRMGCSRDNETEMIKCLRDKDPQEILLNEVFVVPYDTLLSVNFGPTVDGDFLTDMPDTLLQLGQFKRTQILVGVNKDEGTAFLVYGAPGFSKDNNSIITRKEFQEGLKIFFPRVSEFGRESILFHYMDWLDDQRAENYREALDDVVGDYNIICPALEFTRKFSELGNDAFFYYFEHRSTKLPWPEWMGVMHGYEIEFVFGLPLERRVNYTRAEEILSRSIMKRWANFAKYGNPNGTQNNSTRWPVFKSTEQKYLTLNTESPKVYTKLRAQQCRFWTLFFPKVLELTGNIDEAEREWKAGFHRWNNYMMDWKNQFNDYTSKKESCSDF
- Assay Text: biochemical
- Condition Details: mean ± SD, n = three independent experiments, read-out: IC50 BuChE
Value Kind: IC50

> print(dat)
                              smiles.input  observed.measurement
1  CCCCCCCCNC(=O)NNC(=O)c1ccc(C(F)(F)F)cc1                101 µM
2      CCCCCC(=O)NNC(=O)c1ccc(C(F)(F)F)cc1                110 µM
3       CCCNC(=O)NNC(=O)c1ccc(C(F)(F)F)cc1                113 µM
4   CCCCCCCNC(=O)NNC(=O)c1ccc(C(F)(F)F)cc1               79.3 µM
